# measurementDescription: Human HepG2 cell viability assay in 384 well format
# Format: toxicity, cell-based
# Parameters: dose 125 nL, time 70.5 hour; concentration not given beside the values
# studyConditions: HepG2 cells, read-out: Inhibition
recordedMetric: cytotoxicity at 70.5 h (%)
Numbers only, in %.

[
  {
    "compound": "CN(CCc1ccccn1)S(=O)(=O)N1CCCC1c1ccco1 (stereo unspecified)",
    "cytotoxicity at 70.5 h, %": -10.8
  }
]

Could you tell me cytotoxicity at 70.5 h for each of these compounds? They are listed below.
1. COC(=O)c1ccc2ccn(CC3CCCO3)c(=O)c2c1 (stereo unspecified)
2. Cc1cc(NCc2ccc(S(N)(=O)=O)cc2)nc(C)n1

[-0.903, -13.8]

Could you tell me cytotoxicity at 70.5 h for each of these compounds? They are listed below.
1. Cc1ccc(CNC(=O)c2ccc(CNS(C)(=O)=O)o2)cc1F
2. CCC(CNC(=O)c1ccccc1Br)N1CCc2ccccc2C1 (stereo unspecified)
3. O=C(NCc1ccccc1F)N1CCC(C2OCCO2)CC1

[17.8, -9.67, -7.09]

Could you tell me cytotoxicity at 70.5 h for each of these compounds? They are listed below.
1. COc1ccc(Br)cc1SCCCS(C)(=O)=O
2. CCCN1CCCC(O)(c2nc(C)c(COc3ccccc3)s2)CC1 (stereo unspecified)
3. NC(=O)CSc1ccccc1NCc1nc(C2CC2)no1
4. Cc1ccc(Cl)cc1-n1nnnc1C1(N2CCCC2)CCCC1
5. Cc1cnn(C2CCCN(C(=O)Cc3ccc(C#N)cc3)C2)c1 (stereo unspecified)
6. Cc1noc(C)c1CN(C)C(=O)C1CCN(S(N)(=O)=O)CC1
7. CC(C)c1nccn1C1CCCN(C(=O)c2ccc3nncn3c2)C1 (stereo unspecified)
8. COc1ccc([C@@H]2CN(C(=O)CCc3cc(Cl)no3)C[C@H]2N(C)C)cc1

-0.49
13.4
15
-11.5
-2.96
-1.71
13
4

Could you tell me cytotoxicity at 70.5 h for each of these compounds? They are listed below.
1. Cc1oc(C)c(C(=O)NCc2cccnc2)c1C
2. CCCC(C)C(=O)N1CCC(c2cc(N3CCOCC3)nc(C)n2)CC1 (stereo unspecified)

1: -14.1; 2: -1.55

---

Could you please report measured cytotoxicity at 70.5 h for the items listed next?
# measurementDescription: Human HepG2 cell viability assay in 384 well format
# Assay type: toxicity, cell-based
# Design: dose 125 nL, time 70.5 hour; concentration not given beside the values
# studyConditions: HepG2 cells, read-out: Inhibition
Answers are plain numbers, in %.

// known answers, use as guide
[
  {
    "compound": "CCc1ncc(C(=O)NCCn2c(C)cc(C)nc2=O)cn1",
    "cytotoxicity at 70.5 h (%)": -1.56
  },
  {
    "compound": "Cc1cnn(CC(=O)N2CCC(c3ccn4nccc4n3)CC2)c1",
    "cytotoxicity at 70.5 h (%)": -2.27
  },
  {
    "compound": "COCC(=O)N1CC[C@H]2C[C@@H](c3nnc(C4CC4)o3)O[C@@H]2C1",
    "cytotoxicity at 70.5 h (%)": 5.55
  },
  {
    "compound": "CCc1nsc(N2CCN(C(=O)COc3ccccc3)CC2)n1",
    "cytotoxicity at 70.5 h (%)": -6.06
  },
  {
    "compound": "Nc1nc2c(c(NCc3ccc(C(=O)N4CCCC4)cc3)n1)CCCC2",
    "cytotoxicity at 70.5 h (%)": 2.85
  },
  {
    "compound": "NC(=O)N1CCCC1COC(=O)c1ccc(F)cc1Br (centres undefined)",
    "cytotoxicity at 70.5 h (%)": 12.5
  },
  {
    "compound": "COC(=O)CC1CCCCN1CC(=O)Nc1cc(F)ccc1F (centres undefined)",
    "cytotoxicity at 70.5 h (%)": -4.9
  },
  {
    "compound": "COC(=O)[C@@H]1CCCN1C(=O)c1cn(CCCc2ccccc2)nn1",
    "cytotoxicity at 70.5 h (%)": -19.4
  },
  {
    "compound": "COc1ccc([C@@H]2CN(c3cc(C(=O)O)ccn3)C[C@H]2N(C)C)cc1",
    "cytotoxicity at 70.5 h (%)": 25.7
  },
  {
    "compound": "Cc1nc(C)n(C2CCCN(C(=O)c3nc(C)n4ccccc34)C2)n1 (centres undefined)",
    "cytotoxicity at 70.5 h (%)": -9.2
  }
]

Could you tell me cytotoxicity at 70.5 h for each of these compounds? They are listed below.
1. CCN(Cc1nc2c(cnn2C)c(=O)[nH]1)c1cccc(Cl)c1
2. CNc1[nH]nc(N)c1NC(=O)c1ccccc1

1: -15.8; 2: -17.7

Could you tell me cytotoxicity at 70.5 h for each of these compounds? They are listed below.
1. O=C1NC[C@]2(CC[C@@H](C(=O)N3CCCC(O)C3)CC2)Oc2ccccc21 (some centres undefined)
2. Cc1nc2c(c(NC3CC3)n1)CCN(C(=O)C1(C#N)CC1)CC2
3. COc1nc(C)ccc1CNC(=O)NC(c1ncc(C)s1)C1CC1 (centres undefined)
4. Cc1noc(C)c1CN(C)CC(c1cccs1)N1CCOCC1 (centres undefined)
5. Cc1cccc(CN2CC[C@H]3[C@H]2CCN3C(=O)c2cnn(C)c2)n1
6. CC[C@H](C)Nc1ncc(-c2cccc(NC(=O)CNC)c2)cn1
7. CN(C(=O)Cn1nc(-c2ccc(Br)cc2)ccc1=O)C1CCS(=O)(=O)C1 (centres undefined)
8. Cc1nnc(NCc2ccccc2S(=O)(=O)N(C)C)c(C#N)c1C

[-7.1, -16.3, -2.73, -4.33, 2.83, -0.898, -22.4, 0.114]

Could you tell me cytotoxicity at 70.5 h for each of these compounds? They are listed below.
1. CCS(=O)(=O)N1CCN(C(=O)C(C)C)CC2(CC(=O)N(C)C2)C1 (centres undefined)
2. NC(=O)c1cc2c(nc1-c1ccoc1)CCC2

-5.47
-6.2

Could you tell me cytotoxicity at 70.5 h for each of these compounds? They are listed below.
1. CCOC(=O)c1sc2ccsc2c1CNC(=O)CCOC
2. Cn1cccc1C(=O)N1CCO[C@H]2[C@H](OCc3cccnc3)CC[C@@H]21
3. Cc1noc(C)c1CN1CCN(C(=O)C(C(C)C)n2cncn2)CC1 (centres undefined)

1: 16.3; 2: -7.88; 3: 2.25

Could you tell me cytotoxicity at 70.5 h for each of these compounds? They are listed below.
1. Cc1cc(C(=O)N2CCCC2c2c(C)nn(C)c2C)no1 (centres undefined)
2. OCC1(O)CCCN(Cc2ccccc2OCCc2ccccc2)CC1 (centres undefined)
3. CC(C)c1nc(CN2CCCC2c2cnn(C)c2)cs1 (centres undefined)
4. CC(CN(C)Cc1cccc(-n2cccn2)c1)C(F)(F)F (centres undefined)
5. CCn1cc(CN2CCCN(C(=O)CCc3cccs3)CC2)cn1
6. CC(NC(=O)NCCCO)c1ccc2c(c1)OCCO2 (centres undefined)
7. Cc1ncc(CN(Cc2ccccn2)Cc2ccccc2Cl)n1C

-10.1
-5.14
-2.88
-1.16
-12.3
-10.1
11.6

Could you tell me cytotoxicity at 70.5 h for each of these compounds? They are listed below.
1. Cc1cnn(CC2CCCN2Cc2coc(-c3cccc(F)c3)n2)c1 (centres undefined)
2. COc1cccc(C2CCCN2C(=O)c2cc3c(nc2OC)CCC3)c1 (centres undefined)

[-113, -2.74]

---

# measurementDescription: Human HepG2 cell viability assay in 384 well format
# Format: toxicity, cell-based
# Parameters: dose 125 nL, time 70.5 hour; concentration not given beside the values
# studyConditions: HepG2 cells, read-out: Inhibition
recordedMetric: cytotoxicity at 70.5 h (%)
One number for each entry, in %.

// known answers, use as guide
[
  {
    "molecule": "Cc1cc(C)n(CC2CCCN2CC(=O)Nc2nncs2)n1 (stereo not given)",
    "cytotoxicity at 70.5 h [%]": 30
  },
  {
    "molecule": "O=S(=O)(Cc1ccccc1Cl)NCCCN1CCCC1",
    "cytotoxicity at 70.5 h [%]": -5.39
  },
  {
    "molecule": "Cc1cc(CNC(=O)c2cnoc2C)c(C)o1",
    "cytotoxicity at 70.5 h [%]": -12
  }
]

Could you tell me cytotoxicity at 70.5 h for each of these molecules? They are listed below.
1. CN(C(=O)Cc1ccccc1F)C1CCN(c2ccccn2)CC1
2. Cc1cccc(CN2CCc3c(nc(N4CCCCC4C)[nH]c3=O)C2)n1 (stereo not given)
3. CCNC(=O)CNC(=O)c1ccn(S(=O)(=O)c2ccc(C)cc2)c1
4. O=C(c1cscn1)N1CCC[C@]2(C[C@@H](OCC3CC3)CO2)C1
5. COC(=O)Cn1c(=O)nc2n1C(=O)N(c1cccc(C)c1)C2
6. CCN(Cc1c(C)nn(C)c1C)C(=O)C1COc2ccccc2C1 (stereo not given)
7. COCCCNC(=O)c1c(-n2cnnn2)sc2c1CCC2

1. -3.14
2. -4.07
3. 1.83
4. -11
5. -7.13
6. -4.62
7. -3.39

Could you tell me cytotoxicity at 70.5 h for each of these molecules? They are listed below.
1. CCS(=O)(=O)Nc1ccn(Cc2c(F)cccc2Cl)n1
2. Cc1ccc(CNC2CCc3nc(C(C)C)nn3C2)o1 (stereo not given)
3. CCC(=O)N1CCCCC1c1nc(O)c2c(n1)CN(C(C)=O)CC2 (stereo not given)
4. O=S(=O)(NCC1CCN(CCN2CCOCC2)C1)c1ccccc1F (stereo not given)
5. CC(=O)N1C[C@@H](c2ccsc2)[C@@H]2CN(CC3CCCCC3)CC[C@@H]21

[-9.46, -4.86, -2.47, 13.9, -5.59]

Data origin: ChEMBL document CHEMBL3507680
